compounds and their reported residual activity
- target.or.system: NUAK1 (human)
- test: radiometric filter-binding kinase assay, Kinase HotSpot
- reported.conditions: compound 0.5 µM; ATP 10 µM
property.measured: residual activity

> print(dat)
                              record.smiles  property.measured  reading
1  COc1cc2ncnc(Nc3ccc(OCc4ccccc4)cc3)c2cc1OC  residual activity    94.8%
2  Cc1cncc2cccc(S(=O)(=O)N3CCCN(C(=O)CN)C[C@H]3C)c12  residual activity    91.1%
3  O=C1Nc2ccc(Br)cc2/C1=C\c1cc2c([nH]1)CCCC2  residual activity    27.7%
4  O=C(c1cc2cc(O)ccc2[nH]1)c1cc2cc(O)ccc2[nH]1  residual activity    69.2%

* * *

Measured residual activity of individual entries
- target.or.system: EPHA5 (human)
- test: radiometric filter-binding kinase assay, Kinase HotSpot
- reported.conditions: compound 0.5 µM; ATP 10 µM
property.measured: residual activity (%)

> print(dat)
                              record.smiles  property.measured  reading
1  O=C1C(Cl)=C(N2C(=O)CCC2=O)C(=O)c2ccccc21  residual activity      113
2  CN(C)S(=O)(=O)c1ccc2c(c1)/C(=C/c1cc3c([nH]1)CCCC3)C(=O)N2  residual activity     85.1
3  Cc1cncc2cccc(S(=O)(=O)N3CCCN(C(=O)CN)C[C@H]3C)c12  residual activity     95.1
4       Fc1ccc(-c2nc3n(c2-c2ccncc2)CCS3)cc1  residual activity     89.7

* * *

- target.or.system: UniProt:P34947
- Sequence (P34947 whole entry, looked up): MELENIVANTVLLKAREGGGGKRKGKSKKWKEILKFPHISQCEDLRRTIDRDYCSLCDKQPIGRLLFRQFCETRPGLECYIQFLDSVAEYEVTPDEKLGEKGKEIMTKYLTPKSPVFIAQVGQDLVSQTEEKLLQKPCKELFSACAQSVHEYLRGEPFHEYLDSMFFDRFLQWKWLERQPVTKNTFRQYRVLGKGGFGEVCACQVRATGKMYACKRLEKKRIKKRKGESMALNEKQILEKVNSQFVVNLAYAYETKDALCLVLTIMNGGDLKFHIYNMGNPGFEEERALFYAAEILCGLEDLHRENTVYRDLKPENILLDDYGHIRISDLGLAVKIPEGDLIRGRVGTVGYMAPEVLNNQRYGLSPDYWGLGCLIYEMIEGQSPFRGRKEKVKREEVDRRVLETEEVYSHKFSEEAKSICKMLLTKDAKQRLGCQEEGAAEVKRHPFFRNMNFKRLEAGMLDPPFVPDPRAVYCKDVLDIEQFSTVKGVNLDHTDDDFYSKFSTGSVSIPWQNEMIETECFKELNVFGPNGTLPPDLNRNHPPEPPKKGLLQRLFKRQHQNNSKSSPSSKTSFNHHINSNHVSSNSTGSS
- test: radiometric filter-binding kinase assay, Kinase HotSpot
- reported.conditions: compound 0.5 µM; ATP 10 µM
property.measured: residual activity (%)

> print(dat)
                               record.smiles  value.unit  reading
 1  CN(C)CCCn1cc(C2=C(c3c[nH]c4ccccc34)C(=O)NC2=O)c2ccccc21           %     71.6
 2    COc1ccc(Cl)cc1NC(=O)Nc1cc(C)nc2ccccc12           %      109
 3  Cc1cncc2cccc(S(=O)(=O)N3CCCN(C(=O)CN)C[C@H]3C)c12           %     97.1
 4               c1ccc2c(-c3ccncc3)c[nH]c2c1           %     99.2
 5  C[C@@H]1CCN(C(=O)CC#N)C[C@@H]1N(C)c1ncnc2[nH]ccc12           %      107
 6  O=C(c1cc2cc(O)ccc2[nH]1)c1cc2cc(O)ccc2[nH]1           %      104
 7               O=C1c2ccccc2-c2nc3nnnn3nc21           %     74.3
 8            Cc1nc(-c2ccccc2)c(-c2ccncc2)o1           %      104
 9       CCCCc1c(-c2ccc(OC)cc2)[nH]c2nccnc12           %      105
10  CO[C@@H]1[C@H](N(C)C(=O)c2ccccc2)C[C@H]2O[C@]1(C)n1c3ccccc3c3c4c(c5c6ccccc6n2c5c31)C(=O)NC4           %     93.3
11  O=C1Nc2ccc(Br)cc2/C1=C\c1cc2c([nH]1)CCCC2           %      106
12  NC(=O)c1cccc(-c2cc(Nc3ccc(OC(F)(F)F)cc3)ncn2)c1           %      109
13        CC(C)(C)c1cc(C=C(C#N)C#N)cc(Br)c1O           %      108
14       Fc1ccc(-c2nc3n(c2-c2ccncc2)CCS3)cc1           %      103
15  COc1cc2ncnc(Nc3ccc(Oc4ccccc4)cc3)c2cc1OC           %     97.4
16  COc1cc2ncnc(Nc3ccc(OCc4ccccc4)cc3)c2cc1OC           %      105
17     COc1ccc2c(c1)/C(=C/c1cnc[nH]1)C(O)=N2           %       97
18  CN(C)S(=O)(=O)c1ccc2c(c1)/C(=C/c1cc3c([nH]1)CCCC3)C(=O)N2           %     95.3
19  O=C1C(Cl)=C(N2C(=O)CCC2=O)C(=O)c2ccccc21           %     91.5
20  COc1ccc(S(=O)(=O)N(CCO)c2ccccc2CN(C)C/C=C/c2ccc(Cl)cc2)cc1           %     94.1
21  Cn1c2ccccc2c2c3c(c4c5ccccc5n(CCC#N)c4c21)CNC3=O           %     89.1
22      CN(C)c1ccc(/C=C2\C(=O)Nc3ccccc32)cc1           %      104
23           Ic1cccc(CSc2nnc(-c3ccncc3)o2)c1           %      106

Ref: the kinase profiling compilation of Christmann-Franck et al. (2016)
